- SUBJECT_OF_TEST: Acetylcholinesterase (Homo sapiens)
- Sequence (P22303 whole entry): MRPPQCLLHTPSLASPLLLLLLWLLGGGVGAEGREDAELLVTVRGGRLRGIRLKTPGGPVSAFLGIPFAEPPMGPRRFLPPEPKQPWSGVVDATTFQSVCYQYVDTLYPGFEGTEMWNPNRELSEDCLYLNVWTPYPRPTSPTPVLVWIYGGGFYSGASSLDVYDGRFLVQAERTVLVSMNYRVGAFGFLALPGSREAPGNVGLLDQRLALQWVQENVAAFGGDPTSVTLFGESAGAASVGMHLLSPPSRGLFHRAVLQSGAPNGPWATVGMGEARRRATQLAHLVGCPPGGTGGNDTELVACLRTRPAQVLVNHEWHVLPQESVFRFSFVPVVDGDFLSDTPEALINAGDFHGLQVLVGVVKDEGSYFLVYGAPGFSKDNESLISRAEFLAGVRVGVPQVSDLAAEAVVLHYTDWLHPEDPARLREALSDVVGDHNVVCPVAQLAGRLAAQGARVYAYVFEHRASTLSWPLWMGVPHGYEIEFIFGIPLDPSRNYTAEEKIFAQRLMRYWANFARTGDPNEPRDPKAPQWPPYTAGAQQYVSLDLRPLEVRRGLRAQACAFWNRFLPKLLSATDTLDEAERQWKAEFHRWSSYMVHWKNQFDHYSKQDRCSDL
Lab note: anything with IC50 below 2 µM is marked condition met; values at 2 µM or higher are marked condition not met.

Would you please look over these solved cases?
# COMPOUND, LABEL
rows = [
    ("COc1ccc2[nH]cc(CCNC(=O)CCCCn3cc(CCCCN4CC[C@@]56C=C[C@H](O)C[C@@H]5Oc5c(OC)ccc(c56)C4)nn3)c2c1", "condition met"),
    ("COc1ccc2c3c1O[C@H]1C[C@@H](O)C=C[C@@]31CCN(CCCCc1cn(CCCC(=O)NCCc3c[nH]c4ccccc34)nn1)C2", "condition met"),
    ("COc1ccc2[nH]cc(CCNC(=O)Cn3cc(CN4CC[C@@]56C=C[C@H](O)C[C@@H]5Oc5c(OC)ccc(c56)C4)nn3)c2c1", "condition not met"),
    ("COc1ccc2[nH]c(CCNC(=O)CCCn3cc(CCCCN4CCc5cc(OC)c(OC)cc5C4CCCN4C(=O)c5ccccc5C4=O)nn3)cc2c1 (stereo unspecified)", "condition not met"),
]

Threshold test, IC50 < 2 µM: COc1ccc2[nH]cc(CCNC(=O)Cn3cc(CN4CCc5cc(OC)c(OC)cc5C4CCCN4C(=O)c5ccccc5C4=O)nn3)c2c1 (stereo unspecified) condition not met

Threshold test, IC50 < 2 µM: "COc1ccc2[nH]cc(CCNC(=O)CCCCn3cc(CN4CC[C@@]56C=C[C@H](O)C[C@@H]5Oc5c(OC)ccc(c56)C4)nn3)c2c1" condition met

Threshold test, IC50 < 2 µM: "COc1ccc2c3c1O[C@H]1C[C@@H](O)C=C[C@@]31CCN(CCCCc1cn(CC(=O)NCCc3c[nH]c4ccccc34)nn1)C2" condition met

Threshold test, IC50 < 2 µM: "COc1ccc2[nH]cc(CCNC(=O)Cn3cc(CCCCN4CC[C@@]56C=C[C@H](O)C[C@@H]5Oc5c(OC)ccc(c56)C4)nn3)c2c1" condition met

Threshold test, IC50 < 2 µM: COc1ccc2[nH]c(CCNC(=O)Cn3cc(CCCCN4CCc5cc(OC)c(OC)cc5C4CCCN4C(=O)c5ccccc5C4=O)nn3)cc2c1 (stereo unspecified) condition not met

Threshold test, IC50 < 2 µM: "COc1ccc2c3c1O[C@H]1C[C@@H](O)C=C[C@@]31CCN(CCCCc1cn(CCCCC(=O)NCCc3c[nH]c4ccccc34)nn1)C2" condition met

Threshold test, IC50 < 2 µM: COc1ccc2[nH]cc(CCNC(=O)Cn3cc(CCCCN(C)CCCC4c5cc(OC)c(OC)cc5CCN4C)nn3)c2c1 (stereo unspecified) condition not met
